- Species: Homo sapiens
- METHOD NOTES: Compound was tested for the inhibitory activity against serotonin secretion by U-46,619 (0.3 uM) + Aspirin (ASA, 1 mM).
- Format: functional, organism-based
pIC50: −log10 of the molar value.
Parameter: pIC50. Scope: all listed entries.
MEASUREMENT NAME: pIC50

| COMPOUND | READOUT VALUE |
| --- | --- |
| O=C(O)C1Cc2cc(Cl)ccc2O1 (configuration not stated) | 2.84 |
| O=c1c(O)c(O)oc2ccc(Cl)cc12 | 2.62 |

* * *

Parameter: IC50. Scope: all listed entries.
- Species: Homo sapiens
- METHOD NOTES: Compound was tested for the inhibitory activity against serotonin secretion by arachidonic acid (AA (0.1-1 mM)).
- Format: functional, organism-based
- MEASUREMENT PARAMETERS: in the assay text read “AA (0.2-1 mM)” for “AA (0.1-1 mM)”

| MOLECULE | RELATIONAL OPERATOR | IC50 (µM) |
| --- | --- | --- |
| O=C(O)C1Cc2cc(Cl)ccc2O1 (stereo not drawn) | = | 1010 |
| CC(C)(Oc1ccc(Cl)cc1)C(=O)O [CLOFIBRIC ACID] | > | 3430 |
| O=c1c(O)c(O)oc2ccc(Cl)cc12 | = | 814 |

This collection of values is drawn from ChEMBL document CHEMBL1123261.
